These data points were gathered from patent US12195482B1.

- tested-system: recombinant human TYRO3 (Homo sapiens, UniProt Q06418)
- Sequence (Q06418 41-890): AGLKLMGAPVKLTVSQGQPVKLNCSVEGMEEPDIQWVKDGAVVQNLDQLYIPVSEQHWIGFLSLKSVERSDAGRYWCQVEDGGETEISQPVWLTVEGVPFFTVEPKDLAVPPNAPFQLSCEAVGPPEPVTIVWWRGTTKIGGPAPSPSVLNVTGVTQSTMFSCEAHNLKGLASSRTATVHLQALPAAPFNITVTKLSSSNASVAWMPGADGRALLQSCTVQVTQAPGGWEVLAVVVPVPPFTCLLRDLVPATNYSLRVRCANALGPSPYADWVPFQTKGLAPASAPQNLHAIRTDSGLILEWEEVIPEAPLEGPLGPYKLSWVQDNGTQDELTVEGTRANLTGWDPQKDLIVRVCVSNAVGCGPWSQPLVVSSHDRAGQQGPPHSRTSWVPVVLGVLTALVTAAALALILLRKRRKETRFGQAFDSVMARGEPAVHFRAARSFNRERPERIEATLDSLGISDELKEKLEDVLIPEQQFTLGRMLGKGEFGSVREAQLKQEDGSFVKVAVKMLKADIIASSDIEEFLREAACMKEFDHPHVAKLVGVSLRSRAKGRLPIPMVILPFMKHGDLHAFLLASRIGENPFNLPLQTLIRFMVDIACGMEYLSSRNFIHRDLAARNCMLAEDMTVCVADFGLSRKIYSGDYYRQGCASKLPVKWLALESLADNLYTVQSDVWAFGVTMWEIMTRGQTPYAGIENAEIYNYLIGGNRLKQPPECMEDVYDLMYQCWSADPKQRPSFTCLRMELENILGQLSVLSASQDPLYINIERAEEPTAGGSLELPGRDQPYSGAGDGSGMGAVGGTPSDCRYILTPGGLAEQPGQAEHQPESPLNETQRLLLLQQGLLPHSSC
- experiment-notes: Biochemical potency, HTRF KinEASE-TK kinase assay
- condition-info: 1 nM TYRO3, 700 μM ATP
List of IC50 values.
readout-kind: IC50

1) Cc1nn(C)nc1-c1ccc(-c2n[nH]c3ncc(-c4ccc5c(c4)CC[C@@H](N4C6COCC4C6)CC5)cc23)cc1 [Example 14] | < 100 nM
2) Cc1ncc(C)c(-c2ccc(-c3c[nH]c4ncc(-c5ccc6c(c5)CC[C@@H](N5C7COCC5C7)CC6)cc34)cc2)n1 [Example 123] | < 100 nM
3) Cn1ccnc1-c1ccc(-c2n[nH]c3ncc(-c4ccc5c(c4)CC[C@@H](N4C6COCC4C6)CC5)cc23)cc1 [Example 111] | < 100 nM
4) C[C@@H]1CCCN1[C@@]1(C)CCc2ccc(-c3cnc4[nH]nc(-c5ccc(-c6nccs6)cc5)c4c3)cc2CC1 [Example 91] | 100 to 1000 nM
5) Cc1cccnc1-c1ccc(-c2c[nH]c3ncc(-c4ccc5c(c4)CC[C@@H](N4C[C@@H]6C[C@H]4CO6)CC5)cc23)cc1 [Example 187] | < 100 nM
6) Cc1ccnc(-c2ccc(-c3n[nH]c4ncc(-c5ccc6c(c5)CC[C@@H](N5C7COCC5C7)CC6)cc34)cc2)c1C [Example 118] | < 100 nM
7) FC(F)(F)c1cccnc1-c1ccc(-c2n[nH]c3ncc(-c4ccc5c(c4)CC[C@@H](N4C6COCC4C6)CC5)cc23)cc1 [Example 88] | 100 to 1000 nM
8) CN(C)C(=O)c1ccccc1-c1ccc(-c2c[nH]c3ncc(-c4ccc5c(c4)CC[C@@H](N4C6COCC4C6)CC5)cc23)cc1 [Example 92] | < 100 nM
9) Cn1nncc1-c1ccc(-c2n[nH]c3ncc(-c4ccc5c(c4)CC[C@@H](N4C6COCC4C6)CC5)cc23)cc1 [Example 13] | > 1000 nM
10) Cc1cccnc1-c1ccc(-c2n[nH]c3ncc(-c4ccc5c(c4)CC[C@@H](N[C@H]4CCCOC4)CC5)cc23)cc1 [Example 129] | < 100 nM
11) Cn1ncnc1-c1ccc(-c2n[nH]c3ncc(-c4ccc5c(c4)CC[C@@H](N4C6COCC4C6)CC5)cc23)cc1 [Example 110] | < 100 nM
12) Cn1nccc1-c1ccc(-c2n[nH]c3ncc(-c4ccc5c(c4)CC[C@@H](N4C6COCC4C6)CC5)cc23)cc1 [Example 109] | 100 to 1000 nM
13) CN(C)C(=O)c1ccccc1-c1ccc(-c2n[nH]c3ncc(-c4ccc5c(c4)CC[C@@H](N4C6COCC4C6)CC5)cc23)cc1 [Example 12] | 100 to 1000 nM
14) Cc1cccnc1-c1ccc(-c2c[nH]c3ncc(-c4ccc5c(c4)CC[C@@](C)(N4CCC[C@H]4C)CC5)cc23)cc1 [Example 172] | < 100 nM
15) Fc1cccnc1-c1ccc(-c2c[nH]c3ncc(-c4ccc5c(c4)CC[C@@H](N4C6COCC4C6)CC5)cc23)cc1 [Example 42] | 100 to 1000 nM
16) Cc1cccnc1-c1ccc(-c2c[nH]c3ncc(-c4ccc5c(c4)CC[C@@H](N4C6COCC4C6)CC5)cc23)nc1 [Example 96] | < 100 nM
17) Cc1cccnc1-c1ccc(-c2n[nH]c3ncc(-c4ccc5c(c4)CC[C@@](C)(N4CCC[C@H]4C)CC5)cc23)cc1 [Example 163] | < 100 nM
18) CN(C)C(=O)c1cccnc1-c1ccc(-c2c[nH]c3ncc(-c4ccc5c(c4)CC[C@@H](N4C6COCC4C6)CC5)cc23)cc1 [Example 165] | < 100 nM
19) c1cc(-c2ccc(-c3c[nH]c4ncc(-c5ccc6c(c5)CC[C@@H](N5C7COCC5C7)CC6)cc34)cc2)ccn1 [Example 41] | > 1000 nM
20) COc1cccc(-c2ccc(-c3n[nH]c4ncc(-c5ccc6c(c5)CC[C@@H](N5C7COCC5C7)CC6)cc34)cc2)n1 [Example 162] | > 1000 nM
21) CCc1cccnc1-c1ccc(-c2n[nH]c3ncc(-c4ccc5c(c4)CC[C@@H](N4C6COCC4C6)CC5)cc23)cc1 [Example 182] | < 100 nM
22) c1cc(-n2cc(-c3c[nH]c4ncc(-c5ccc6c(c5)CC[C@@H](N5C7COCC5C7)CC6)cc34)cn2)ccn1 [Example 45] | > 1000 nM
23) Cc1cc(F)cnc1-c1ccc(-c2n[nH]c3ncc(-c4ccc5c(c4)CC[C@@H](N4C6COCC4C6)CC5)cc23)cc1 [Example 28] | < 100 nM
24) Cc1cccnc1-c1ccc(-c2n[nH]c3ncc(-c4ccc5c(c4)CC[C@@H](N4C6COCC4C6)CC5)cc23)cc1 [Example 2] | < 100 nM
25) N#Cc1cccnc1-c1ccc(-c2n[nH]c3ncc(-c4ccc5c(c4)CC[C@@H](N4C6COCC4C6)CC5)cc23)cc1 [Example 52] | 100 to 1000 nM
26) COCCOc1cccnc1-c1ccc(-c2c[nH]c3ncc(-c4ccc5c(c4)CC[C@@H](N4C6COCC4C6)CC5)cc23)cc1 [Example 3] | < 100 nM

----------
- tested-system: p-AXL (Homo sapiens, UniProt P30530)
- Sequence (P30530 26-894): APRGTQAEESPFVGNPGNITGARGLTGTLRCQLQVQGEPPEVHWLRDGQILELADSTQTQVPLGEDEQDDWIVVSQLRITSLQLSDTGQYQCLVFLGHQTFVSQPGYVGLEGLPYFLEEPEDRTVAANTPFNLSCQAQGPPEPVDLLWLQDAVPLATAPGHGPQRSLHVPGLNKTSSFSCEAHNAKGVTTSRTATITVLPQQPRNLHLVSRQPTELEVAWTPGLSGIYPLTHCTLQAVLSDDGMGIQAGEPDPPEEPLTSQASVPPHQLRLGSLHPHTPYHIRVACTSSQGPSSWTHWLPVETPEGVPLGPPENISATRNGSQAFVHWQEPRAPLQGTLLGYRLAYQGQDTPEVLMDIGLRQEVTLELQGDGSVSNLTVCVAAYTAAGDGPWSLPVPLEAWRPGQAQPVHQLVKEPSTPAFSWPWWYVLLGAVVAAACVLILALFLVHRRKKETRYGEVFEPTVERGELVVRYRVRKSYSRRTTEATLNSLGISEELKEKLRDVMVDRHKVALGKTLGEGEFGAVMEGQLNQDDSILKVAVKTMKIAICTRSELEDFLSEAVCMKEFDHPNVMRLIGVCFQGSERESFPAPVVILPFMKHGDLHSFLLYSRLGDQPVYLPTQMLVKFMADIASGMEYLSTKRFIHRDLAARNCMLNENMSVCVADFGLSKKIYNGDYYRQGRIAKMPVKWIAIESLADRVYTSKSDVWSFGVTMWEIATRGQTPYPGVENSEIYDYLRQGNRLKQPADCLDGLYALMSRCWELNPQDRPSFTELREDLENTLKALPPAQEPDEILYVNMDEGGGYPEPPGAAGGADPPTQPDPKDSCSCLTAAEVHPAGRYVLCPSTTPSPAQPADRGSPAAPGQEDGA
- experiment-notes: Axl phosphorylation inhibition ELISA in HEK293T cells transfected with NanoLuc-tagged AXL
- condition-info: 1 h compound incubation, media (OptiMEM)
pIC50: −log10 of the molar value.
readout-kind: pIC50

1) Cc1cnc(C)c(-c2ccc(-c3n[nH]c4ncc(-c5ccc6c(c5)CC[C@@](C)(N5CCC[C@H]5C)CC6)cc34)cc2)n1 [Example 64] | > 7.00
2) CO[C@H]1C[C@@H](N[C@H]2CCc3ccc(-c4cnc5[nH]nc(-c6ccc(-c7ncccc7C)cn6)c5c4)cc3CC2)C1 [Example 108] | > 7.00
3) Cc1ccnc(-c2ccc(-c3n[nH]c4ncc(-c5ccc6c(c5)CC[C@@H](N5C7COCC5C7)CC6)cc34)cc2)c1 [Example 117] | 6.00 to 7.00
4) Cc1ncc(C)c(-c2ccc(-c3c[nH]c4ncc(-c5ccc6c(c5)CC[C@@H](N5C7COCC5C7)CC6)cc34)cc2)n1 [Example 123] | > 7.00
5) Cc1ccnnc1-c1ccc(-c2c[nH]c3ncc(-c4ccc5c(c4)CC[C@@](C)(N4CCC[C@H]4C)CC5)cc23)cc1 [Example 51] | > 7.00
6) Cc1ncccc1-c1ccc(-c2c[nH]c3ncc(-c4ccc5c(c4)CC[C@@H](N4C6COCC4C6)CC5)cc23)cc1 [Example 74] | 6.00 to 7.00

----------
- tested-system: recombinant human MER (Homo sapiens, UniProt Q12866)
- Construct: purchased Invitrogen
- Sequence (Q12866 21-999): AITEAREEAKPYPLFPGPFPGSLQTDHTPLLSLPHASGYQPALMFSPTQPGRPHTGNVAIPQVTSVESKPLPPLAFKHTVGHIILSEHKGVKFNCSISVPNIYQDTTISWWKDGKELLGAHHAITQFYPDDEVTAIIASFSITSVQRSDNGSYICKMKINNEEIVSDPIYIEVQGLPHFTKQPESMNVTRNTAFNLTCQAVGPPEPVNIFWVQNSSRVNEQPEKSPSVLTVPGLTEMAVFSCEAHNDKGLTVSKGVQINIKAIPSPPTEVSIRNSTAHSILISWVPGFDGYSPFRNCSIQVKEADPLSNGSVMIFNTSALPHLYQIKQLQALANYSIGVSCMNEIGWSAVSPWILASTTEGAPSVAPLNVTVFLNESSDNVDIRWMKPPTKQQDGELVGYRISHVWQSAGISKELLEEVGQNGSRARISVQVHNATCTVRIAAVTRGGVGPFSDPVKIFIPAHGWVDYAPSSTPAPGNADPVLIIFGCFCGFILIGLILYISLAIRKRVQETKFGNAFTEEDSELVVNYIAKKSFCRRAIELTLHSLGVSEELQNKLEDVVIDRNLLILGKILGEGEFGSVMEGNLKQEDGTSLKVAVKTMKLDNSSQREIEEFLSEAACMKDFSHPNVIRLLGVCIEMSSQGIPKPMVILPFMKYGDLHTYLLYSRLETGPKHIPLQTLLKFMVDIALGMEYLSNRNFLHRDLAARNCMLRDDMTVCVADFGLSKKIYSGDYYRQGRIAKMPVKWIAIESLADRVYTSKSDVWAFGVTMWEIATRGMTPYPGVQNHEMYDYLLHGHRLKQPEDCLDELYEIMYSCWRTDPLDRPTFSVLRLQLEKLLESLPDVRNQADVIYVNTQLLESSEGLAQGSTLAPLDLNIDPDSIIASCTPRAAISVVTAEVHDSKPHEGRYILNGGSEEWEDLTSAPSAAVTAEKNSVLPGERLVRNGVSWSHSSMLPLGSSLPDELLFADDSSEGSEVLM
- experiment-notes: Biochemical potency, HTRF KinEASE-TK kinase assay
- condition-info: 1 nM MER, 700 μM ATP
Listed below: IC50 values for each entry.
readout-kind: IC50

1. Clc1cc(-c2c[nH]c3ncc(-c4ccc5c(c4)CC[C@@H](N4C6COCC4C6)CC5)cc23)ccc1-c1ccccn1 | 100 to 1000 nM
2. C[C@@H]1COC(=O)N1c1cccnc1-c1ccc(-c2n[nH]c3ncc(-c4ccc5c(c4)CC[C@@H](N4C6COCC4C6)CC5)cc23)cc1 | < 100 nM
3. Cn1nccc1-c1ccc(-c2n[nH]c3ncc(-c4ccc5c(c4)CC[C@@H](N4C6COCC4C6)CC5)cc23)cc1 | 100 to 1000 nM
4. OC1(c2cccnc2-c2ccc(-c3c[nH]c4ncc(-c5ccc6c(c5)CC[C@@H](N5C7COCC5C7)CC6)cc34)cc2)CCC1 | < 100 nM
